test: Phase 1 single ascending dose study: plasma pharmacokinetics of syn-ACTH; format: in vivo, healthy adult subjects; conditions: human, plasma; single IM dose, range across dose cohorts; read-out: median Tmax
measuredProperty: Tmax

So what does the record say about Tmax for H-SYSMEHFRWGKPVGKKRRPVKVYPNGAEDELAEAFPLEF-OH [AMZ002] ? 0.08 to 2 h

###

experiment: Phase 1 single ascending dose study: plasma pharmacokinetics of syn-ACTH; format: in vivo, healthy adult subjects; conditions: human, plasma; single IM dose, range across dose cohorts; read-out: mean t½
measuredProperty: half-life

So what does the record say about half-life for H-SYSMEHFRWGKPVGKKRRPVKVYPNGAEDELAEAFPLEF-OH [AMZ002] ? 54.7 to 156 min
